# Target or test system: intracellular domain of DDR1 (Homo sapiens, UniProt Q08345)
# Construct: the intracellular domain of DDR1 (in a final concentration of 5 ng/μL) (Carna Biosciences, Inc.)
# Sequence (Q08345 439-913 limits assumed): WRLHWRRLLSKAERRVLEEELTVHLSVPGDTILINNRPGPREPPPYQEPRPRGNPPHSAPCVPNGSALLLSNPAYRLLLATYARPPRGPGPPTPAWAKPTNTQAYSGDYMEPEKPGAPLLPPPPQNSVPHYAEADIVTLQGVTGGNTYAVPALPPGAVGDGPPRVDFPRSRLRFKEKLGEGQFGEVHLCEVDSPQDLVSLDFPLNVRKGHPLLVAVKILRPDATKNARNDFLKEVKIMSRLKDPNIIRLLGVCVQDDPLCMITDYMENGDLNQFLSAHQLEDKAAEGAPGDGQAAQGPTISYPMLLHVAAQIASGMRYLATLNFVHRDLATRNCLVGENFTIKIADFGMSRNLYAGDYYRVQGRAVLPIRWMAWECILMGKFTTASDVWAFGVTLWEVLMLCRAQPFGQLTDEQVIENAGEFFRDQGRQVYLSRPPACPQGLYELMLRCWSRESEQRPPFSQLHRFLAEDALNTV
# Test method notes: Evaluation of DDR1 inhibition activity with HTRF KinEASE-TK kit
# Condition: DDR1 intracellular domain 5 ng/μL, ATP 25 μm/L, TK Substrate-biotin 1000 nmol/L, room temperature, one hour
Reported IC50 values for the following compounds.
// note: answer is a bare numeric in nM

Solved cases (4 shown):
O=C(Nc1cc(OC(F)(F)F)ccc1OC1COC1)N[C@H]1CC[C@H](Oc2ccnc(N3CCOCC3)n2)CC1 [Example 44]    128
O=C1CN(c2ccc(C(F)(F)F)cc2NC(=O)N[C@H]2CC[C@H](Oc3ncccn3)CC2)CCN1 [Example 15]    72.4
O=C(Nc1cc(C(F)(F)F)ccc1OC1COC1)N[C@H]1CC[C@H](OCc2cccnc2)CC1 [Example 76]    14.1
COc1c(CO)cc(OC(F)(F)F)cc1NC(=O)N[C@H]1CC[C@H](OCc2cccnc2)CC1 [Example 67]    9.69

Lookup: Return IC50 for the following compound: COc1ccc(OC(F)(F)F)cc1NC(=O)N[C@H]1CC[C@H](Oc2ccc(-c3ccccc3)nn2)CC1 [Example 16]
Found: 963

Lookup: Give the reported value of IC50 for this record: COc1ccc(OC(F)(F)F)cc1NC(=O)N[C@H]1CC[C@H](Oc2ccnc(-c3cccnc3)n2)CC1 [Example 39]
Found: 236

Lookup: # return recorded IC50 for input O=C(Nc1cc(C(F)(F)F)ccc1OC1COC1)N[C@H]1CC[C@H](Oc2ccnc(NCCO)n2)CC1 [Example 63]
Found: 46.7
